Measured values drawn from the supplement of paper PMC10646978 for this set.

Tested on: RAW-Dual (murine macrophage reporter line)
assay.comment: NF-kB reporter (SEAP) activity fold change vs agonist alone; higher = enhanced NF-kB activity
reported.conditions: modulator concentration 10 µM; agonist: CpG ODN 1826 0.5 ug/mL
Below, each entry is listed alongside its reported NF-kB reporter.
Please reply with the number alone, leaving off any unit.

molecule | test.result
CSc1ccc(C(=O)O)s1 | 1.02
CC1(C)OC(=O)C(=Cc2ccc(I)o2)C(=O)O1 | 0.595
Fc1ccc(Nc2nc(NN=Cc3c[nH]nc3-c3ccccc3)nc(N3CCOCC3)n2)cc1 | 0.537
CC1=NN(c2ccc(C)cc2)C(=O)C1=Cc1c(C)nn(-c2ccc(C)cc2C)c1O | 1.03
Cc1ccc(Sc2c(C)nn(-c3ccccc3)c2OC(=O)C(C)(C)C)cc1 | 0.74
COc1ccc(C(NC(=O)c2ccccc2F)c2ccc(OC)cc2)cc1 | 1.03

NF-kB reporter recorded for this molecule, COCc1cc(C)nc2sc(C(=O)c3cccc([N+](=O)[O-])c3)c(N)c12 , is 0.804

NF-kB reporter recorded for this molecule, CC(O)Cn1cnc2c1c(=O)n(C)c(=O)n2C (stereo unspecified) , is 1.06

NF-kB reporter recorded for this molecule, Cc1oncc1C(=O)NCCn1nc(C(F)(F)F)cc1C1CC1 , is 1.06

NF-kB reporter recorded for this molecule, O=C(NC(Cc1cc(=O)[nH]c2ccccc12)C(=O)O)c1ccc(Cl)cc1 (stereo unspecified) , is 1.4

NF-kB reporter recorded for this molecule, Cc1ccc(C=CC(=O)O)cc1S(=O)(=O)NCCO , is 1.04

---

Tested on: RAW-Dual (murine macrophage reporter line)
assay.comment: viability score (confluency relative to resting cells, overnight) (fraction); higher = more viable, active = viable (0.7 or more)
reported.conditions: modulator concentration 10 µM
Pick from active, inactive when you respond.

Illustrative cases are given below, each with its answer.
compound | target.desc | classification
Cn1c(=O)[nH]c(=O)c2c1nc(N1CCCCC1)n2CCC#N | RAW-Dual (murine macrophage reporter line) | active
CCC(C)(C)C(=O)OC1CC(C)C=C2C=CC(C)C(CCC3CC(O)CC(=O)O3)C21 (stereo unspecified) | RAW-Dual (murine macrophage reporter line) | active
CCOc1nc2cccc(C(=O)O)c2n1Cc1ccc(-c2ccccc2-c2nn[nH]n2)cc1 | RAW-Dual (murine macrophage reporter line) | active
COc1ccc2c3c1O[C@H]1C[C@@H](O)C=C[C@@]31CCN(C)C2 | RAW-Dual (murine macrophage reporter line) | active
COC1(c2ccc(Cl)cc2)OC(=O)c2ccccc21 (stereo unspecified) | RAW-Dual (murine macrophage reporter line) | active
Cc1c(N=Cc2cc([N+](=O)[O-])ccc2O)c(=O)n(-c2ccccc2)n1C | RAW-Dual (murine macrophage reporter line) | active
Cl.O=C(c1ccc(OCCN2CCCCC2)cc1)c1c(-c2ccc(O)cc2)sc2cc(O)ccc12 | RAW-Dual (murine macrophage reporter line) | inactive
NC(=O)c1cn(Cc2c(F)cccc2F)nn1 | RAW-Dual (murine macrophage reporter line) | active

Please indicate how the test categorized CN(C)CCOC(c1ccc(Cl)cc1)c1ccccn1.O=C(O)/C=C\C(=O)O (stereo unspecified) .
active

Please indicate how the test categorized CC(=C(C#N)C(=O)NCc1ccccc1)N(C)C .
active

Please indicate how the test categorized O=S(=O)(c1ccc(-n2cccn2)cc1)N1CC(n2cc(C3CC3)nn2)C1 .
active

Please indicate how the test categorized COc1c(O)cc(O)cc1O .
active

Please indicate how the test categorized CC(=O)C1CCC2C3CC=C4CC(O)CCC4(C)C3CCC12C (stereo unspecified) .
active

Please indicate how the test categorized COc1ccc2cc1Oc1ccc(cc1)C[C@H]1c3c(cc4c(c3Oc3cc5c(cc3OC)CCN(C)[C@@H]5C2)OCO4)CCN1C .
active

Please indicate how the test categorized COC(=O)C1=C(C)NC(C)=C(C(=O)OC(C)(C)CN(C)CCC(c2ccccc2)c2ccccc2)C1c1cccc([N+](=O)[O-])c1.Cl (stereo unspecified) .
active

Please indicate how the test categorized CCOc1cc2ncc(C#N)c(Nc3ccc(OCc4ccccn4)c(Cl)c3)c2cc1NC(=O)/C=C/CN(C)C .
active

Please indicate how the test categorized CNc1nc(Nc2ccc(C)c(C)c2)c2nccnc2n1 .
active

Please indicate how the test categorized C#CCN[C@@H]1CCc2ccccc21 .
active

Please indicate how the test categorized CN(C)CCC(c1ccccc1)c1ccccn1.O=C(O)/C=C\C(=O)O (stereo unspecified) .
inactive

Please indicate how the test categorized Cc1nnc(NN=Cc2ccc(Cl)c([N+](=O)[O-])c2)[nH]c1=O .
active

Please indicate how the test categorized Cc1ccc(Sc2cc(Sc3ccc(C)cc3)c3noc4c3c2C(=O)c2ccccc2-4)cc1 .
active
